- STUDY SYSTEM: T1, TNFR1 (Homo sapiens, UniProt P19438)
- T1 chain: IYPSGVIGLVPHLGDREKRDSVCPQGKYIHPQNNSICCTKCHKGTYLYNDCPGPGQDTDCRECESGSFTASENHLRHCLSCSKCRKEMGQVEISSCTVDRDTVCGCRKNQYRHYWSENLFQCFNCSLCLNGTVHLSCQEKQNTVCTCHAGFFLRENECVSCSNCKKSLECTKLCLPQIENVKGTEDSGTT
- EXPERIMENT SUMMARY: yeast display SC50
TEST READOUT: apparent Kd (screen) (nM)

{"BINDER": "A106R (designed binder) SMEEEVEKAAKEYEKKKKEAIEKHLEKLKAKDKEAAERFLKELEEAAKEYAKDEAKTMSEEEAKRRAKKYKEKVLLSELSEEEQKEIKEAEEKLVRTILKYVEEARK", "UNIT OF MEASUREMENT": "nM", "apparent Kd (screen)": 3}

I. A67F (designed binder) SMEEEVEKAAKEYEKKKKEAIEKHLEKLKAKDKEAAERFLKELEEAAKEYAKDEAKTMSEEEAKRRFKKYKEKVLLSELSEEEQKEIKEAEEKLVRTILKYVEEAAK
II. E91A (designed binder) SMEEEVEKAAKEYEKKKKEAIEKHLEKLKAKDKEAAERFLKELEEAAKEYAKDEAKTMSEEEAKRRAKKYKEKVLLSELSEEEQKEIKEAAEKLVRTILKYVEEAAK
In: Which of the two gives a bigger number for apparent Kd (screen): I or II ? # answer = label of selected item
Out: I
(I: 18.3 nM, II: 7.07 nM)

A. A10W (designed binder) SMEEEVEKAWKEYEKKKKEAIEKHLEKLKAKDKEAAERFLKELEEAAKEYAKDEAKTMSEEEAKRRAKKYKEKVLLSELSEEEQKEIKEAEEKLVRTILKYVEEAAK
B. V74M (designed binder) SMEEEVEKAAKEYEKKKKEAIEKHLEKLKAKDKEAAERFLKELEEAAKEYAKDEAKTMSEEEAKRRAKKYKEKMLLSELSEEEQKEIKEAEEKLVRTILKYVEEAAK
In: Which of the two gives a bigger number for apparent Kd (screen): A or B ? # answer = label of selected item
Out: A

I. T57M (designed binder) SMEEEVEKAAKEYEKKKKEAIEKHLEKLKAKDKEAAERFLKELEEAAKEYAKDEAKMMSEEEAKRRAKKYKEKVLLSELSEEEQKEIKEAEEKLVRTILKYVEEAAK
II. K71F (designed binder) SMEEEVEKAAKEYEKKKKEAIEKHLEKLKAKDKEAAERFLKELEEAAKEYAKDEAKTMSEEEAKRRAKKYFEKVLLSELSEEEQKEIKEAEEKLVRTILKYVEEAAK
In: Which of the two gives a bigger number for apparent Kd (screen): I or II ? # answer = label of selected item
Out: II

The measurements presented in this section are drawn from paper PMC12416549.
